# System: Enterococcus faecium
# PROTOCOL: Antibacterial activity against vancomycin-resistant Enterococcus faecium assessed as complete reduction in bacterial cell growth by CLSI protocol based broth liquid microdilution method
# Format: functional
The entries below are paired with their reported MIC.

SMILES STR	ASSAY TARGET	MIC (µg/mL)
CC(=O)NC[C@H]1CN(c2ccc(-c3ccc(/C=N/N4CCS(=O)(=O)CC4)cn3)c(F)c2)C(=O)O1	Enterococcus faecium	1
CC(=O)NC[C@H]1CN(c2ccc(-c3ccc(/C=N/N4CC[S+]([O-])CC4)nc3)c(F)c2)C(=O)O1	Enterococcus faecium	0.5
CC(=O)NC[C@H]1CN(c2ccc(-c3ccc(/C=N/N4CCSCC4)c(F)c3)c(F)c2)C(=O)O1	Enterococcus faecium	1
CC(=O)NC[C@H]1CN(c2ccc(-c3ccc(/C=N/N4CC[S+]([O-])CC4)c(O)c3)c(F)c2)C(=O)O1	Enterococcus faecium	0.25
CC(=O)NC[C@H]1CN(c2ccc(-c3ccc(/C=N/N4CCN(C)CC4)c(C(F)(F)F)c3)c(F)c2)C(=O)O1	Enterococcus faecium	2
COc1cc(-c2ccc(N3C[C@H](CNC(C)=O)OC3=O)cc2F)ccc1/C=N/N1CCOCC1	Enterococcus faecium	2
CC(=O)NC[C@H]1CN(c2ccc(-c3ccc(/C=N/N4CCN(C(=O)c5ccccc5)CC4)nc3)c(F)c2)C(=O)O1	Enterococcus faecium	1
CC(=O)NC[C@H]1CN(c2ccc(-c3ccc(/C=N/N4CCNCC4)c(C)c3)c(F)c2)C(=O)O1	Enterococcus faecium	0.5
CC(=O)NC[C@H]1CN(c2ccc(-c3ccc(/C=N/N4CCN(C)CC4)nc3)c(F)c2)C(=O)O1	Enterococcus faecium	0.25
COC(=O)N1CCN(/N=C/c2ccc(-c3ccc(N4C[C@H](CNC(C)=O)OC4=O)cc3F)cn2)CC1	Enterococcus faecium	0.5

====

# PROTOCOL: Solubility of compound in water by UV spectrophotometric analysis
# Format: physicochemical
ENDPOINT LABEL: solubility (µg/mL)

SMILES STR	ENDPOINT LABEL	MEASURED VALUE
CC(=O)NC[C@H]1CN(c2ccc(-c3ccc(/C=N/N4CCN(C)CC4)nc3)c(F)c2)C(=O)O1	solubility	63
CC(=O)NC[C@H]1CN(c2ccc(-c3ccc(/C=N/N4CCN(C)CC4)cc3)c(F)c2)C(=O)O1	solubility	11.9
CC(=O)NC[C@H]1CN(c2ccc(-c3ccc(/C=N/N4CCS(=O)(=O)CC4)nc3)c(F)c2)C(=O)O1	solubility	68
CC(=O)NC[C@H]1CN(c2ccc(-c3ccc(/C=N/N4CCSCC4)nc3)c(F)c2)C(=O)O1	solubility	57

====

# PROTOCOL: Stability in simulated gastric acid assessed as compound remaining at pH 1.2 incubated for 2 hrs
# Assay type: ADME
# RUN PARAMETERS: read-out: Stability
The entries below are paired with their reported remaining at 2 h.

SMILES STR	remaining at 2 h / %
CC(=O)NC[C@H]1CN(c2ccc(-c3ccc(/C=N/N4CCS(=O)(=O)CC4)nc3)c(F)c2)C(=O)O1	98.7
CC(=O)NC[C@H]1CN(c2ccc(-c3ccc(/C=N/N4CCN(C)CC4)c(O)c3)c(F)c2)C(=O)O1	5.3
CC(=O)NC[C@H]1CN(c2ccc(-c3ccc(/C=N/N4CCSCC4)c(O)c3)c(F)c2)C(=O)O1	75.9
CC(=O)NC[C@H]1CN(c2ccc(-c3ccc(/C=N/N4CCSCC4)nc3)c(F)c2)C(=O)O1	98
CC(=O)NC[C@H]1CN(c2ccc(-c3ccc(/C=N/N4CCN(C)CC4)nc3)c(F)c2)C(=O)O1	95.8
